- Test system: CHIKV 181/25
- assay_name: Virus yield dose-response in U-2 OS cells, CHIKV
- Type: cell-based, Chikungunya virus
- run_conditions: Chikungunya virus, U2OS, resistance study (Fig. 7), read-out: EC50 virus production, CHIKV WT
measurement_type: EC50 (µM)
Output spec: scalar in µM, unitless text.

// field: EC50; key: `O=C(CN1C(=O)CNC1=O)NCc1n[nH]c2c1CCCCC2` ; value = 9.15

====

- System: CHIKV-nLuc (181/25 strain)
- assay_name: microbe, parasite or virus in culture
- Assay type: cell-based, Chikungunya virus
- run_conditions: Chikungunya virus, 384-well format, read 20 h after infection, read-out: Normalized percent inhibition in primary screen
measurement_type: inhibition at 5 µM (%)
Output spec: scalar in %, unitless text.

Consider the following illustrative entries.
In [3]: df
Out[3]:
                              line_notation  unit_abbreviation  reported_result
0  CCNc1cc(C)nc(N2CCN(C(=O)c3cccc4ccccc34)CC2)n1                  %             95.4
1  CCS(=O)(=O)c1ncc(Cl)c(C(=O)Nc2nnc(C(C)C)s2)n1                  %             97.2
2    O=C(CN1C(=O)CNC1=O)NCc1n[nH]c2c1CCCCC2                  %             88.7
3  CCNc1nc(C)cc(N2CCN(C(=O)c3cc(Cl)ccc3OC)CC2)n1                  %             82.1

Okay, next one:
// field: inhibition at 5 µM; key: `O=C(CSc1c2c(nc3cc(Cl)ccc13)CCCC2)Nc1ccc2c(c1)OCCO2` ; value = 82.1
